molecular target: Fibroblast growth factor receptor 3 (Homo sapiens) (UniProt P22607); conditions: Compound concentration 20.0 uM, Protein concentration 2.0 uM, Result type QC Liability
Sequence (P22607 23-806 limits assumed): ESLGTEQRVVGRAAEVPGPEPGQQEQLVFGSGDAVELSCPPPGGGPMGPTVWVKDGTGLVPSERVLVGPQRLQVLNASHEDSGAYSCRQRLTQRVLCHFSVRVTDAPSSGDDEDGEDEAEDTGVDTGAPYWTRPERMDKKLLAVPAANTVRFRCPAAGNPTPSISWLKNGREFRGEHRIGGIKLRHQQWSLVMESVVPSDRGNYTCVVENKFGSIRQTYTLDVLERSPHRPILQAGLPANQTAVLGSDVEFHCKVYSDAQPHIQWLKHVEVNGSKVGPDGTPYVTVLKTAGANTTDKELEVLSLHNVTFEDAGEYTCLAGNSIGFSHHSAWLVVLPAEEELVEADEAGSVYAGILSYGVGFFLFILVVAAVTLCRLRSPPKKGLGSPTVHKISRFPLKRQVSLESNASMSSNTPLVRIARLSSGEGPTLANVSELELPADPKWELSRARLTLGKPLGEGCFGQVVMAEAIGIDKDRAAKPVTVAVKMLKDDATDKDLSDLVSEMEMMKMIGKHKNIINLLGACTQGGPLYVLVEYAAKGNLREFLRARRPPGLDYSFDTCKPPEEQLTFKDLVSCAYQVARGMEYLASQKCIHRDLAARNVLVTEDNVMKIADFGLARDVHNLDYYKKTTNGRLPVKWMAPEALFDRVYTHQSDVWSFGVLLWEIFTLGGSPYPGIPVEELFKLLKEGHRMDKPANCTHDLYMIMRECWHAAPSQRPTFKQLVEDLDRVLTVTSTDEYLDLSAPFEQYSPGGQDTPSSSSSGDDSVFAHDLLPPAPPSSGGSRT
Description: Thermal Shift Assay. Domain: start/stop: P449-E759
Would you mind labelling by ΔTm? At or over 0.9 °C is Y, under is N.

Solved cases below.
# compound, labelClass
records = [
    ("CS(=O)(=O)c1ccc(-c2cnc(N)c(C(=O)Nc3ccccc3)n2)cc1", "Y"),
    ("CCc1nc(C2CCC2)n2nc(-c3ccccc3)[nH]c(=O)c12", "N"),
    ("Cc1cnc(-c2cnc(NCCNc3ccc(C#N)cn3)nc2-c2ccc(Cl)cc2Cl)[nH]1", "Y"),
    ("C[C@@H]1CCNC(=O)c2cc3ccc(C(=O)Nc4nc5ccccc5n4CCCN(C)C)cc3n21", "Y"),
    ("Cc1c(CCC(=O)O)cccc1NC(=O)[C@@H](c1ccc(-c2cncc(Cl)c2)c(F)c1)C1CCCC1", "N"),
]

# evaluate next
Tell me whether ΔTm is at least 0.9 °C here: COP(=O)(CCC(N)C(=O)O)Oc1cccc(CC(=O)O)c1 (stereo not given) N

Where these numbers come from: ChEMBL document CHEMBL5308504
